pIC50: −log10 of the molar value.
Collected literature values of pIC50 measured for Histone deacetylase 2 (Homo sapiens, UniProt Q92769).
quantity: pIC50

compound=C/C=C1\NC(=O)c2cc(F)cc(n2)CNC(=O)C[C@@H](/C=C/CCSC(=O)CCCCCCC)OC(=O)[C@H](Cc2ccccc2)NC1=O relational_operator== reported_measurement=7.37
compound="CCCNNC(=O)c1ccc(-c2ccc(NC(=O)COCCOCCNc3cccc4c3C(=O)N(C3CCC(=O)NC3=O)C4=O)cc2)cc1 (stereo not shown)" relational_operator== reported_measurement=6.39
compound=C/C=C1\NC(=O)c2cccc(n2)CNC(=O)C[C@@H](/C=C/CCSC(=O)CCCCCCC)OC(=O)[C@H](C(C)(C)C)NC1=O relational_operator== reported_measurement=7.49
compound=Nc1nc2cc(-c3nnn(Cc4ccc(-c5nnc(C(F)F)o5)cn4)n3)ccc2o1 relational_operator=< reported_measurement=4.52
compound=C/C=C1\NC(=O)c2cc(F)cc(n2)CNC(=O)C[C@@H](/C=C/CCSC(=O)CCC)OC(=O)[C@H](C(C)C)NC1=O relational_operator== reported_measurement=7.29
compound="Fc1ccc(C(CC(F)(F)F)Nc2ncc(-c3nnc(C(F)F)o3)cn2)cc1 (stereo not shown)" relational_operator=< reported_measurement=4.52

----------
pIC50: −log10 of the molar value.
The compounds below each have a reported pIC50 tested on Histone deacetylase 2 (Homo sapiens, UniProt Q92769); the values come from various publications.
Classification field: enter MET for pIC50 values not below 7, NOT MET for values below it.

compound="CN(C(=O)CCCNc1cccc2c1C(=O)N(C1CCC(=O)NC1=O)C2=O)c1ccc(NC(=O)CCCCCCC(=O)NO)cc1 (stereo not shown)" group_label="NOT MET"
compound=C/C=C1\NC(=O)c2nc(ccc2F)CNC(=O)C[C@@H](/C=C/CCSC=O)OC(=O)[C@H](C(C)C)NC1=O group_label=MET
compound=CCN(CC)S(=O)(=O)c1cccc(-c2nnc(Sc3ccc(C(=O)NO)cc3)n2C)c1 group_label="NOT MET"
compound=Cn1c(N)nc2cc(-c3nnn(Cc4ccc(-c5nnc(C(F)F)o5)cc4)n3)ccc21 group_label="NOT MET"
compound=C/C=C1\NC(=O)c2nc(ccc2F)CNC(=O)C[C@@H](/C=C/CCSC(=O)CCCCC)OC(=O)[C@H](C(C)C)NC1=O group_label=MET
compound=C/C=C1\NC(=O)c2cc(F)cc(n2)CNC(=O)C[C@@H](/C=C/CCSC(=O)CCCC)OC(=O)[C@H](C(C)C)NC1=O group_label=MET
compound="CC(C)[C@H](C(=O)N1CCC(Nc2ncc(C(=O)NO)cn2)(c2ccccc2)CC1)c1ccccc1 (stereo in doubt)" group_label="NOT MET"
compound=C/C=C1\NC(=O)c2nc(ccc2F)CNC(=O)C[C@@H](/C=C/CCSC(C)=O)OC(=O)[C@H](Cc2cccc3ccccc23)NC1=O group_label=MET
compound=Cc1ccc(NC(=O)CCCCCC(=O)N2CCN(c3ccccc3)CC2)cc1 group_label="NOT MET"
compound=FC(F)c1nnc(-c2ccc(Cn3cnc(-c4ccc(NC5=NCCN5)cc4)c3)cc2)o1 group_label="NOT MET"
compound=Nc1ccccc1NC(=O)c1ccc(CSc2nc3ccncc3[nH]2)cc1 group_label=MET
compound=O=C(/C=C/c1ccccc1)NO group_label="NOT MET"

----------
Compiled from multiple publications: IC50 readings for UniProtKB Q92769.
quantity: IC50

structure_as_smiles=CN1C(=O)Cc2cc(C(=O)Nc3cc(-c4cccs4)ccc3N)ccc21 quantity=IC50 reported_measurement="0.01 to 0.015 µM"
structure_as_smiles=Nc1ccc(-c2ccccc2)cc1NC(=O)c1ccc(N2CCNCC2)nn1 quantity=IC50 reported_measurement="0.02 to 0.03 µM"
structure_as_smiles=O=C(Nc1cccc(-c2cn(Cc3ccc(-c4nnc(C(F)F)o4)cn3)nn2)c1)N1CCOCC1 quantity=IC50 reported_measurement="> 30 µM"
structure_as_smiles=Cn1cc(Cc2ccc(F)cc2)c2cc(C(=O)NO)ccc21 quantity=IC50 reported_measurement="23 µM"
structure_as_smiles=CC(C)C1(Nc2ncc(C(=O)NO)cn2)CCN(C(=O)OCc2ccccc2)CC1 quantity=IC50 reported_measurement="0.121 µM"
structure_as_smiles=Nc1ccccc1NC(=O)c1ccc(N2CC[C@H](NC(=S)NCc3cccnc3)C2)cc1 quantity=IC50 reported_measurement="≤ 5 µM"
structure_as_smiles=C/C=C1\NC(=O)c2cc(SC)cc(n2)CNC(=O)C[C@@H](/C=C/CCSC(=O)CCCCCC)OC(=O)[C@H](C(C)C)NC1=O quantity=IC50 reported_measurement="0.024 µM"
structure_as_smiles=CN(c1ccccc1)S(=O)(=O)c1cccc(/C=C/C(=O)NO)c1 quantity=IC50 reported_measurement="0.0529 µM"
structure_as_smiles=CN1C(=O)C(C)(C)c2cc(C(=O)Nc3cc(-c4cccs4)ccc3N)ccc21 quantity=IC50 reported_measurement="2.14 to 2.15 µM"
structure_as_smiles=COCCNc1ccc2cc(C(=O)Nc3cc(-c4cccs4)ccc3N)cnc2c1 quantity=IC50 reported_measurement="0.05 to 0.105 µM"
structure_as_smiles=Nc1ccc(-c2cccs2)cc1NC(=O)c1ccc2c(c1)CC(=O)N2CCN1CCCCC1 quantity=IC50 reported_measurement="0.07 to 0.075 µM"
structure_as_smiles=C/C=C1\NC(=O)c2ccc(SC)c(n2)CNC(=O)C[C@@H](/C=C/CCSC(=O)CCCCCCC)OC(=O)[C@H](CC)NC1=O quantity=IC50 reported_measurement="0.031 µM"
structure_as_smiles=CN(C)[C@H]1CCN(c2ccc(C(=O)Nc3ccccc3N)cc2)C1 quantity=IC50 reported_measurement="≤ 5 µM"
structure_as_smiles=Cn1cnc2c(NC3CCCCC3)nc(Nc3ccc(OCCCCCC(=O)NO)cc3)nc21 quantity=IC50 reported_measurement="1.64 µM"
structure_as_smiles=Nc1ccc(-c2ccncc2)cc1NC(=O)c1nc(N2CCNCC2)cs1 quantity=IC50 reported_measurement="0.01 to 0.5 µM"
structure_as_smiles=Nc1ccc(-c2ccccn2)cc1NC(=O)c1cnc(N2CCNCC2)s1 quantity=IC50 reported_measurement="0.01 to 0.5 µM"
structure_as_smiles=Nc1cc(F)ccc1NC(=O)c1ccc2c(cnn2Cc2cncc(F)c2)c1 quantity=IC50 reported_measurement="< 1 µM"

----------
Compiled record: pIC50 values for Histone deacetylase 2 (Homo sapiens) across several sources.
pIC50: −log10 of the molar value.
quantity: pIC50

structure_as_smiles=Cc1ccc(S(=O)(=O)N2CCC(Nc3ncc(C(=O)NO)cn3)(c3ccccc3)CC2)cc1 assayed_system="Histone deacetylase 2 (Homo sapiens)" relational_operator== reported_measurement=6.19
structure_as_smiles=COc1ccc2c(c1)NC(=O)N(Cc1ccc(C(=O)Nc3cc(F)ccc3N)cc1)S2(=O)=O assayed_system="Histone deacetylase 2 (Homo sapiens)" relational_operator=> reported_measurement=7.30
structure_as_smiles=CN1CCN(c2ncc(C(=O)Nc3nc(-c4ccccc4)ccc3N)cn2)CC1 assayed_system="Histone deacetylase 2 (Homo sapiens)" relational_operator=> reported_measurement=6.70
structure_as_smiles=O=C(CCCCCCN(c1ccccn1)c1ccccn1)NO assayed_system="Histone deacetylase 2 (Homo sapiens)" relational_operator== reported_measurement=5.81
structure_as_smiles=CC(C)n1c(SCc2ccc(C(=O)Nc3ccccc3N)cc2)nc2ccccc21 assayed_system="Histone deacetylase 2 (Homo sapiens)" relational_operator=> reported_measurement=7.00

----------
Published pIC50 for Histone deacetylase 2 (Homo sapiens, UniProt Q92769), assembled from different documents, is shown next.
pIC50: −log10 of the molar value.
quantity: pIC50

structure_as_smiles=O=C(NO)c1cnc(NC2(c3cc(F)cc(F)c3)CCCCC2)nc1 assayed_system="Histone deacetylase 2 (Homo sapiens, UniProt Q92769)" quantity=pIC50 relational_operator== reported_measurement=6.06
structure_as_smiles=Nc1ccccc1NC(=O)c1ccc2c(cnn2Cc2cccnc2)c1 assayed_system="Histone deacetylase 2 (Homo sapiens, UniProt Q92769)" quantity=pIC50 relational_operator=> reported_measurement=6.00
structure_as_smiles=CNc1ccc(C(=O)NCCCCCCC(=O)NO)cc1 assayed_system="Histone deacetylase 2 (Homo sapiens, UniProt Q92769)" quantity=pIC50 relational_operator== reported_measurement=7.92
structure_as_smiles=Nc1ccccc1NC(=O)c1ccc(N2CC[C@H](NC(=O)OCc3ccccn3)C2)cc1 assayed_system="Histone deacetylase 2 (Homo sapiens, UniProt Q92769)" quantity=pIC50 relational_operator=≥ reported_measurement=6.30
structure_as_smiles=Nc1cc(F)ccc1NC(=O)c1ccc2c(cnn2Cc2ccc(F)c(F)c2)c1 assayed_system="Histone deacetylase 2 (Homo sapiens, UniProt Q92769)" quantity=pIC50 relational_operator=> reported_measurement=6.00
structure_as_smiles=Nc1ccccc1NC(=O)c1ccc(CN2C(=O)Nc3ccc(-c4ccncc4)cc3S2(=O)=O)cc1 assayed_system="Histone deacetylase 2 (Homo sapiens, UniProt Q92769)" quantity=pIC50 relational_operator=> reported_measurement=7.30
structure_as_smiles=Nc1ccccc1NC(=O)c1ccc(CSc2nc3cccnc3[nH]2)cc1 assayed_system="Histone deacetylase 2 (Homo sapiens, UniProt Q92769)" quantity=pIC50 relational_operator=> reported_measurement=7.00
structure_as_smiles=CN1Cc2ccccc2N(Cc2ccc(C(=O)Nc3ccccc3N)cc2)C1=O assayed_system="Histone deacetylase 2 (Homo sapiens, UniProt Q92769)" quantity=pIC50 relational_operator=> reported_measurement=7.30
structure_as_smiles=C/C=C1\NC(=O)c2nc(ccc2F)CNC(=O)C[C@@H](/C=C/CCSC(=O)CC)OC(=O)[C@H](C(C)C)NC1=O assayed_system="Histone deacetylase 2 (Homo sapiens, UniProt Q92769)" quantity=pIC50 relational_operator== reported_measurement=7.49
structure_as_smiles=O=C(NO)c1cnc(NC2(c3ccccc3)CCN(C(=O)OCc3ccccc3)CC2)nc1 assayed_system="Histone deacetylase 2 (Homo sapiens, UniProt Q92769)" quantity=pIC50 relational_operator== reported_measurement=6.01
structure_as_smiles=CC(=O)O[C@H]1CCN(c2ccc(C(=O)Nc3ccccc3N)cc2)C1 assayed_system="Histone deacetylase 2 (Homo sapiens, UniProt Q92769)" quantity=pIC50 relational_operator=≥ reported_measurement=6.00
structure_as_smiles=CC(=O)SCC/C=C/[C@@H]1CC(=O)NCc2cc(F)cc(n2)C(=O)NC(=C(C)C)C(=O)N[C@@H](C(C)C)C(=O)O1 assayed_system="Histone deacetylase 2 (Homo sapiens, UniProt Q92769)" quantity=pIC50 relational_operator== reported_measurement=7.46
structure_as_smiles=C/C=C1\NC(=O)c2cccc(n2)CNC(=O)C[C@@H](/C=C/CCSC(C)=O)OC(=O)[C@H](CC)NC1=O assayed_system="Histone deacetylase 2 (Homo sapiens, UniProt Q92769)" quantity=pIC50 relational_operator== reported_measurement=7.17
structure_as_smiles=O=C(/C=C/c1ccc(CNCC2CCCCC2)c(F)c1)NO assayed_system="Histone deacetylase 2 (Homo sapiens, UniProt Q92769)" quantity=pIC50 relational_operator== reported_measurement=7.85
structure_as_smiles=C/C=C1\NC(=O)c2cc(F)cc(n2)CNC(=O)C[C@@H](/C=C/CCSC(C)=O)OC(=O)[C@H](Cc2ccc(O)cc2)NC1=O assayed_system="Histone deacetylase 2 (Homo sapiens, UniProt Q92769)" quantity=pIC50 relational_operator== reported_measurement=7.31
structure_as_smiles=C/C=C1\NC(=O)c2cc(SC)cc(n2)CNC(=O)C[C@@H](/C=C/CCSC(C)=O)OC(=O)[C@H](C(C)C)NC1=O assayed_system="Histone deacetylase 2 (Homo sapiens, UniProt Q92769)" quantity=pIC50 relational_operator== reported_measurement=6.47
structure_as_smiles=C=C1NC(=O)c2nc(ccc2F)CNC(=O)C[C@@H](/C=C/CCSC(C)=O)OC(=O)[C@H](C(C)C)NC1=O assayed_system="Histone deacetylase 2 (Homo sapiens, UniProt Q92769)" quantity=pIC50 relational_operator== reported_measurement=7.37
structure_as_smiles=C/C=C1\NC(=O)c2ccc(F)c(n2)CNC(=O)C[C@@H](/C=C/CCSC(=O)CCCCCCC)OC(=O)[C@H](C)NC1=O assayed_system="Histone deacetylase 2 (Homo sapiens, UniProt Q92769)" quantity=pIC50 relational_operator== reported_measurement=7.57
structure_as_smiles=O=C(/C=C/c1ccc(CNCC23CC4CC(CC(C4)C2)C3)cc1)NO assayed_system="Histone deacetylase 2 (Homo sapiens, UniProt Q92769)" quantity=pIC50 relational_operator== reported_measurement=8.11
structure_as_smiles=COC(=O)N[C@H]1CCN(c2ccc(C(=O)Nc3ccccc3N)cn2)C1 assayed_system="Histone deacetylase 2 (Homo sapiens, UniProt Q92769)" quantity=pIC50 relational_operator=≥ reported_measurement=5.30
structure_as_smiles=O=C(CCCCCCN(c1ccccn1)c1ccc2ccccc2n1)NO assayed_system="Histone deacetylase 2 (Homo sapiens, UniProt Q92769)" quantity=pIC50 relational_operator== reported_measurement=6.67
structure_as_smiles=CC(C)OC(=O)N[C@H]1CCN(c2ccc(C(=O)Nc3ccccc3N)cc2)C1 assayed_system="Histone deacetylase 2 (Homo sapiens, UniProt Q92769)" quantity=pIC50 relational_operator=≥ reported_measurement=6.30
structure_as_smiles=CCCNNC(=O)c1ccc(-c2ccc(NC(=O)CCCCC(=O)N[C@H](C(=O)N3C[C@H](O)C[C@H]3C(=O)N[C@@H](C)c3ccc(-c4scnc4C)cc3)C(C)(C)C)cc2)cc1 assayed_system="Histone deacetylase 2 (Homo sapiens, UniProt Q92769)" quantity=pIC50 relational_operator== reported_measurement=5.78
structure_as_smiles=O=C(NO)c1cnc(NC2(c3ccccc3)CCN(C(=O)Cc3cc4ccccc4[nH]3)CC2)nc1 assayed_system="Histone deacetylase 2 (Homo sapiens, UniProt Q92769)" quantity=pIC50 relational_operator== reported_measurement=8.05
structure_as_smiles=O=C(NO)c1cnc(NC2(c3ccccc3)CCN(C(=O)Nc3cccc(F)c3)CC2)nc1 assayed_system="Histone deacetylase 2 (Homo sapiens, UniProt Q92769)" quantity=pIC50 relational_operator== reported_measurement=7.13
